Values compiled from ChEMBL document CHEMBL1201862.

system: SK-MEL-28; test: NCI tumour cell line growth inhibition, 48 h
Calls of active or inactive are those of the source. Cut-off read from the data, not from the text of the source: active = GI50 up to about 1.1 µM and inactive = higher.
PROPERTY LABEL: GI50

> print(dat)
                                   compound          measurement
1          CCOc1ccc(NC(=O)CCc2nnc(SC)o2)cc1  > 100 µM (inactive)
2          COC(=O)N/N=C(\C)c1c(O)cc(C)oc1=O   50.8 µM (inactive)
3              N#CC(=N)c1ncn(-c2ccccc2N)c1N  > 100 µM (inactive)
4  CCOC(=O)c1c(-c2cccc3ccccc23)c(C#N)c(=S)n(C2OC(COC(C)=O)C(OC(C)=O)C(OC(C)=O)C2OC(C)=O)c1C (stereo not given)  > 100 µM (inactive)
5  COc1cc(CNc2nc3ccccc3n2Cc2ccccc2)cc(CN2CCOCC2)c1O   18.4 µM (inactive)
6  CC12C=C[C@]3(CC[C@@H]4[C@@](C)(CO)CCC[C@]4(C)C3CC1)C2 (stereo not given in full)   19.2 µM (inactive)

For every item in the list below, what is its measured GI50?
1. O=c1[nH]c(Nc2cccc(C(F)(F)F)c2)nc2[nH]cnc12
2. Cc1nc(C)c(C(=O)Nc2cccc3c2C(=O)NC3=O)cc1C(=O)Nc1cccc2c1C(=O)NC2=O
3. O=C(Nc1ccc(Cl)cc1)NS(=O)(=O)c1c(-c2ccccc2)oc2ccccc2c1=O

1. > 100 µM (inactive)
2. > 100 µM (inactive)
3. > 100 µM (inactive)

Hi! What's the reported GI50 for COc1ccc(OC)c(CC(=O)c2ccc(O)c(C(=O)NCCc3ccc(F)cc3)c2)c1 on SK-MEL-28?
6.41 µM (inactive)
